For each of the molecules below, state its IC50.
EXPERIMENTAL SYSTEM: CDK5/GST-p25 (Homo sapiens)
Sequence (Q00535 whole entry, species assumed): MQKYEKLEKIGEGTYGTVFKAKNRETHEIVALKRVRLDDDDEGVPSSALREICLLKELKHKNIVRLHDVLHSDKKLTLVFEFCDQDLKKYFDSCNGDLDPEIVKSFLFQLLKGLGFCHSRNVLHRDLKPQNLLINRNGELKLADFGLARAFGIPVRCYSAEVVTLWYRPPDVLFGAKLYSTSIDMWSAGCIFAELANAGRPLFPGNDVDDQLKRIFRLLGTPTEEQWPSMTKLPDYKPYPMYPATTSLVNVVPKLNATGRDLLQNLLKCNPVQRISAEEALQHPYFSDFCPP
Sequence (Q15078 99-307 partner limits assumed, species assumed): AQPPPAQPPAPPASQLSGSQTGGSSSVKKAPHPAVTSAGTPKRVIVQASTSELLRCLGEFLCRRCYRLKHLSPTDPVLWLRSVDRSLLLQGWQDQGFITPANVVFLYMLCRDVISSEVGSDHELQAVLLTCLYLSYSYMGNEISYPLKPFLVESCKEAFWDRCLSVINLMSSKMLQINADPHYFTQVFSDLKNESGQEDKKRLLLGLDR
EXPERIMENTAL PROTOCOL: Cyclin-Dependent Kinase 5 inhibition assay (TRF)
Assay type: biochemical
CONDITION LABEL: 10 μM ATP; read-out: CDK-5 IC50

Consider the following illustrative entries.
| MOLECULE | IC50 |
| --- | --- |
| O=c1[nH]nc(-c2ccncc2)c2[nH]c3ccc([N+](=O)[O-])cc3c12 | > 3000 nM |
| COc1ccc(-c2n[nH]c(=O)c3c2[nH]c2ccccc23)cc1 | > 1000 nM |
| O=c1[nH]nc(-c2ccc(O)cc2)c2c1[nH]c1ccccc12 [Example 14e] | > 3000 nM |

INPUT: # lookup: IC50 of COc1ccc2c(c1)[nH]c1c(-c3ccc(OCc4ccccc4)cc3)n[nH]c(=O)c12
OUTPUT: > 1000 nM

###

EXPERIMENTAL SYSTEM: MLK1 (GST-MLK1KD) (Homo sapiens, UniProt P80192)
Construct: 1 μg/mL of baculoviral GST-MLK1KD (Lot 23.1A); GST; made in house
Sequence (P80192 144-412 limits assumed, species assumed): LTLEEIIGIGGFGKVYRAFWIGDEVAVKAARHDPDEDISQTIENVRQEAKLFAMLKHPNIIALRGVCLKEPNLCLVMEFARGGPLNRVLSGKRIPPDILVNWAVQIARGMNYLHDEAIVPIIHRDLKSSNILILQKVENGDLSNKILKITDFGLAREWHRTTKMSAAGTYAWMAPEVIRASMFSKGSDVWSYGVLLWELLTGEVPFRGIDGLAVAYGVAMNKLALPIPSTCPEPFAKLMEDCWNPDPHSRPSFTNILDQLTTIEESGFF
EXPERIMENTAL PROTOCOL: Mixed Lineage Kinase-1 inhibition assay (32P, myelin basic protein)
Format: biochemical
CONDITION LABEL: 1 uM compound; 60 μM ATP; read-out: MLK-1 % inhibition @ 1 uM
VALUE TYPE: inhibition at 1 µM (%)
Give bare numbers, in %.

Consider the following illustrative entries.
| COMPOUND | EXPERIMENTAL SYSTEM | inhibition at 1 µM, % |
| --- | --- | --- |
| COc1ccc2[nH]c3c(-c4cc5ccccc5o4)n[nH]c(=O)c3c2c1 | MLK1 (GST-MLK1KD) (Homo sapiens, UniProt P80192) | 53 |
| O=c1[nH]nc(-c2nccs2)c2[nH]c3ccccc3c12 | MLK1 (GST-MLK1KD) (Homo sapiens, UniProt P80192) | 5 |
| O=c1[nH]nc(-c2cc3ccccc3o2)c2[nH]c3cc(OCc4ccccc4)ccc3c12 | MLK1 (GST-MLK1KD) (Homo sapiens, UniProt P80192) | 0 |
| O=c1[nH]nc(-c2cccnc2)c2[nH]c3ccccc3c12 | MLK1 (GST-MLK1KD) (Homo sapiens, UniProt P80192) | 0 |

Quick request: inhibition at 1 µM for each listed item, please.
1. Cn1c2ccccc2c2c(=O)[nH]nc(-c3cc4ccccc4o3)c21 [Example 11a]
2. Cc1ccc(-c2n[nH]c(=O)c3c2[nH]c2ccccc23)o1
3. O=c1[nH]nc(-c2ccccn2)c2[nH]c3ccccc3c12
4. O=c1[nH]nc(-c2cc3ccccc3o2)c2[nH]c3ccccc3c12
5. O=c1[nH]nc(-c2ccncc2)c2[nH]c3ccccc3c12
6. O=c1[nH]nc(-c2cc3ccccc3s2)c2c1[nH]c1ccccc12 [Example 14b]

OUTPUT:
[19, 10, 0, 41, 0, 0]

INPUT: # lookup: inhibition at 1 µM of Cn1c2ccccc2c2c(=O)[nH]nc(-c3cc4ccccc4s3)c21 [Example 11b]
OUTPUT: 0

Every entry's value here was drawn from patent US7732447B2.
